Taken from patent US20150329642A1.

target: T1, cMetECDHis (human, UniProt P08581 25-932, limits assumed, biotinylated in the cross-block ELISA of Example 17); assay: cross-block ELISA; competitor 008
T1 construct: Expressed in HEK-293F cells; also called soluble cMetECDHis; biotinylated cMetECDHis
Parameter measured: residual binding, % of no competitor (%)
Response body: numeric value in %, unit text excluded.

>  <Binder>
IgG1-1016-069 (antibody, V domains shown, also called clone 069; TH1016-069) VH: QVQLVQSGAEVKKPGASVKVSCETSGYTFTSYGISWVRQAPGHGLEWMGWISAYNGYTNYAQKLQGRVTMTTDTSTSTAYMELRSLRSDDTAVYYCARDLRGTNYFDYWGQGTLVTVSS VL: DIQMTQSPSSVSASVGDRVTITCRASQGISNWLAWFQHKPGKAPKLLIYAASSLLSGVPSRFSGSGSGTDFTLTISSLQPEDFATYYCQQANSFPITFGQGTRLEIK

>  <Unit tag>
%

>  <residual binding, % of no competitor>
102

$$$$

Prompt: Dear colleague, I am looking for the recorded residual binding, % of no competitor of the following binder: IgG1-1016-058 (antibody, V domains shown, also called IgG1-058; TH1016-058) VH: EVQLVESGGGLVKPGGSLKLSCAASGFTFSDYYMYWVRQTPEKRLEWVATISDDGSYTYYPDSVKGRFTISRDNAKNNLYLQMSSLKSEDTAMYYCAREGLYYYGSGSYYNQDYWGQGTLVTVSS VL: AIQLTQSPSSLSASVGDRVTITCRASQGLSSALAWYRQKPGKAPKLLIYDASSLESGVPSRFSGSGSGTDFTLTISSLQPEDFATYYCQQFTSYPQITFGQGTRLEIK
Response: 90.2
